tested on: rape; test: Test B pre/postemergence rape; format: in vivo, Brassica napus; details: Postemergence, Rate 500 g/ha; scale of 0 to 10 where 0 is no effect and 10 is complete control
Reported Rape plant response rating values for the following compounds.
READOUT_KIND: Rape plant response rating

# GIVEN_SMILES, VALUE_MEASURED
data = [
    ("CC(C)N(C(=O)n1oc(=O)n(C(CF)CF)c1=O)c1ccccc1", 8),
    ("CC(C)N(C(=O)n1oc(=O)n(C(CF)CF)c1=O)c1ccc(F)cc1", 10),
    ("C=C(C)CCn1c(=O)on(C(=O)N(c2ccccc2)C(C)C)c1=O", 0),
    ("CC(C)N(C(=O)n1oc(=O)n(CC2CCC2)c1=O)c1ccc(F)cc1", 7),
    ("CC(C)N(C(=O)n1oc(=O)n(CCC(F)(F)F)c1=O)c1ccc(F)cc1", 2),
]

Reference source: patent US6737383B1
